Values compiled from patent US11655246B2.

# STUDY TARGET: human CTPS1 (Homo sapiens)
# Construct: purchased Proteros biostructures GmbH
# TEST DETAILS: Human CTPS1 enzyme inhibition (ADP-Glo Max assay)
# Format: biochemical
# MEASUREMENT SETUP: Table 17, 25° C., read-out: CTPS1 (Human CTPS1 Enzyme Inhibition data grouped by potency range)
MEASURED ATTRIBUTE: IC50

Example molecules with recorded IC50:
MOLECULE: Cc1ncccc1-c1ccc(NC(=O)Cc2csc(NS(=O)(=O)C3CC3)n2)cc1
IC50: 100 to 1000 nM
--
MOLECULE: COCCC(C(=O)Nc1ccc(-c2cncc(Cl)c2)cc1)c1csc(NS(=O)(=O)C2CC2)n1 (centres unmarked)
IC50: < 100 nM
--
MOLECULE: COc1cncc(-c2ccc(NC(=O)C(C)(C)c3csc(NS(=O)(=O)C4CC4)n3)cc2)c1
IC50: 100 to 1000 nM
--
MOLECULE: CC(C)C(C(=O)Nc1ccc(-c2ccccc2)cc1)c1csc(NS(=O)(=O)C2CC2)n1 (centres unmarked)
IC50: 1000 to 10000 nM
--
MOLECULE: CCC(C(=O)Nc1ccc(-c2cncc(C(F)(F)F)n2)cc1)c1csc(NS(=O)(=O)C2CC2)n1 (centres unmarked) [T73]
IC50: < 100 nM

The measured IC50 associated with COCCC(C(=O)Nc1ccc(-c2cnccn2)cn1)c1csc(NS(=O)(=O)C2CC2)n1 (centres unmarked) reads 100 to 1000 nM

The measured IC50 associated with CCC(CC)(C(=O)Nc1ccc(-c2cncc(Cl)n2)cc1)c1csc(NS(=O)(=O)C2CC2)n1 reads < 100 nM

The measured IC50 associated with COC(C(=O)Nc1ccc(-c2cncc(C(F)(F)F)n2)cn1)c1csc(NS(=O)(=O)C2CC2)n1 (centres unmarked) reads < 100 nM

====

Reported pIC50 values are given for each entry in this list.
# STUDY TARGET: human CTPS1 (Homo sapiens, UniProt P17812)
# Construct: purchased Proteros biostructures GmbH
# TEST DETAILS: Human CTPS1 enzyme inhibition (ADP-Glo Max assay)
# Assay type: biochemical
# MEASUREMENT SETUP: Table 18, additional potency data, 25° C., read-out: CTPS1 (Human CTPS1 Enzyme Inhibition data grouped by potency range)
pIC50: −log10 of the molar value.

Example molecules with recorded pIC50:
MOLECULE: CC(C)(C(=O)Nc1ccc(-c2cncc(Cl)c2)cc1)c1csc(NS(C)(=O)=O)n1 [T393]
STUDY TARGET: human CTPS1 (Homo sapiens, UniProt P17812)
MEAS VALUE: 6.00 to 7.00
//
MOLECULE: CC(C)Oc1cncc(-c2ccc(NC(=O)C(C)(C)c3csc(NS(C)(=O)=O)n3)c(F)c2)n1 [T392]
STUDY TARGET: human CTPS1 (Homo sapiens, UniProt P17812)
MEAS VALUE: > 7.00
//
MOLECULE: CC(C)(C(=O)Nc1ccc(-c2cncc(C(F)(F)F)n2)cc1F)c1csc(NS(C)(=O)=O)n1 [T391]
STUDY TARGET: human CTPS1 (Homo sapiens, UniProt P17812)
MEAS VALUE: > 7.00

Lab note: next molecule to report on.
The measured pIC50 associated with CCC(C(=O)Nc1ccc(-c2cncc(C(C)C)n2)cn1)c1csc(NS(=O)(=O)C2CC2)n1 (stereo not shown) [T401] reads 6.00 to 7.00

====

# STUDY TARGET: human CTPS1 (Homo sapiens, UniProt P17812)
# Construct: purchased Proteros biostructures GmbH
# Sequence (P17812 1-591): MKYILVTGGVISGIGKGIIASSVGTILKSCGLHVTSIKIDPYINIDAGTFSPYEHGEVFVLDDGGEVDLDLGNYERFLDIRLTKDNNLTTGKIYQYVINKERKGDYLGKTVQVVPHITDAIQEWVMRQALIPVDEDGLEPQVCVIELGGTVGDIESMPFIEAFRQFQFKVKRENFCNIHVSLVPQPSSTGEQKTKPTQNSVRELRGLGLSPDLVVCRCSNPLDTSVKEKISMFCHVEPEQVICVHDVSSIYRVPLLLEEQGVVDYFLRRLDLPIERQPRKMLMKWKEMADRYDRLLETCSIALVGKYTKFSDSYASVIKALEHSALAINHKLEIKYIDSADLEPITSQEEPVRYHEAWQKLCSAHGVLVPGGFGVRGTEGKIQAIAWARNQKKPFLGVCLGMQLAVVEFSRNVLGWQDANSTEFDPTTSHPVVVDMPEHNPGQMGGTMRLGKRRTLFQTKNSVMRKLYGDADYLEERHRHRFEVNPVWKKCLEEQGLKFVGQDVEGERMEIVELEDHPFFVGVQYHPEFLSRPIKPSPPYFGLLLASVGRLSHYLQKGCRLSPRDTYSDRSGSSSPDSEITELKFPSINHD
# TEST DETAILS: Human CTPS1 enzyme inhibition (ADP-Glo Max assay)
# Format: biochemical
# MEASUREMENT SETUP: Table 17, 25° C., read-out: CTPS1 (Human CTPS1 Enzyme Inhibition data grouped by potency range)
pIC50: −log10 of the molar value.
Reported pIC50 values are given for each entry in this list.

MOLECULE: CC(C)C(C(=O)Nc1ccc(-c2cccnc2)cc1)c1csc(NS(=O)(=O)C2CC2)n1 (single isomer, unassigned) [T13]
STUDY TARGET: human CTPS1 (Homo sapiens, UniProt P17812)
pIC50: 6.00 to 7.00
--
MOLECULE: CCC(C(=O)Nc1ccc(-c2cncc(Cl)c2)cc1F)c1csc(NS(=O)(=O)C2CC2)n1 (centres unmarked) [T203]
STUDY TARGET: human CTPS1 (Homo sapiens, UniProt P17812)
pIC50: > 7.00
--
MOLECULE: N#Cc1cncc(-c2ccc(NC(=O)C3CCc4sc(NS(=O)(=O)C5CC5)nc43)cc2)c1 (centres unmarked) [T217]
STUDY TARGET: human CTPS1 (Homo sapiens, UniProt P17812)
pIC50: > 7.00
--
MOLECULE: CC(C)C(C(=O)Nc1ccc(-c2cnccn2)cc1)c1csc(NS(=O)(=O)C2CC2)n1 (centres unmarked) [T74]
STUDY TARGET: human CTPS1 (Homo sapiens, UniProt P17812)
pIC50: 6.00 to 7.00
--
MOLECULE: CCOc1cncc(-c2cnc(NC(=O)C(CC)c3csc(NS(=O)(=O)C4CC4)n3)c(F)c2)n1 (centres unmarked) [T183]
STUDY TARGET: human CTPS1 (Homo sapiens, UniProt P17812)
pIC50: > 7.00

Record CCC(C(=O)Nc1ccc(-c2cncc(OCC(F)(F)F)n2)cc1)c1csc(NS(=O)(=O)C2CC2)n1 (centres unmarked) [T195] / human CTPS1 (Homo sapiens, UniProt P17812), pIC50 recorded as > 7.00

Record CCC(C(=O)Nc1ccc(-c2cncc(Cl)c2)cc1)c1csc(NS(=O)(=O)C2CC2)n1 (racemic) [T8] / human CTPS1 (Homo sapiens, UniProt P17812), pIC50 recorded as > 7.00

Record CCC(C(=O)Nc1ccc(-c2cncc(C(F)(F)F)c2)cc1)c1csc(NS(=O)(=O)C2CC2)n1 (centres unmarked) [T193] / human CTPS1 (Homo sapiens, UniProt P17812), pIC50 recorded as > 7.00

====

# STUDY TARGET: human CTPS1 (Homo sapiens)
# Construct: purchased Proteros biostructures GmbH
# Sequence (P17812 1-591): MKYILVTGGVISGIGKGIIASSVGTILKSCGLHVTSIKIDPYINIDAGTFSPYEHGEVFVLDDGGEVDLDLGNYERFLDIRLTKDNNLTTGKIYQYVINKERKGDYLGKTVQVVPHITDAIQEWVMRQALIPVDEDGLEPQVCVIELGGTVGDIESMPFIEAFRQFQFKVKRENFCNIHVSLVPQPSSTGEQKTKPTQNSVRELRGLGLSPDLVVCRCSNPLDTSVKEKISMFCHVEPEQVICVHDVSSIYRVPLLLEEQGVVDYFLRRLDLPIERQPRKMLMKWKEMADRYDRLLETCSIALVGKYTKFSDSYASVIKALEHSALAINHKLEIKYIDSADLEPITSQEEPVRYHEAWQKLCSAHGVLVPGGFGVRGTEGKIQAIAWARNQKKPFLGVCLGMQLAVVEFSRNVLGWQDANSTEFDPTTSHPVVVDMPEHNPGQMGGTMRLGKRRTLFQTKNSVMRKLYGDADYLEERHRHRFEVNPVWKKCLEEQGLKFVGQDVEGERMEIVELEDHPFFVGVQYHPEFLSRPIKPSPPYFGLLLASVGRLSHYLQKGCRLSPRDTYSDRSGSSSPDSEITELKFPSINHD
# TEST DETAILS: Human CTPS1 enzyme inhibition (ADP-Glo Max assay)
# Type: biochemical
# MEASUREMENT SETUP: Table 17, 25° C., read-out: CTPS1 (Human CTPS1 Enzyme Inhibition data grouped by potency range)
pIC50: −log10 of the molar value.
MEASURED ATTRIBUTE: pIC50

COMPOUND: CCC(C(=O)Nc1ccc(-c2ccccc2)cc1)c1csc(NS(=O)(=O)C2CC2)n1 (centres unmarked)
MEAS VALUE: 6.00 to 7.00

The measured pIC50 associated with COc1cncc(-c2ccc(NC(=O)C(OC)c3csc(NS(=O)(=O)C4CC4)n3)cc2)n1 (centres unmarked) [T57] reads > 7.00

The measured pIC50 associated with CCC(C(=O)Nc1ccc(-c2cncc(C#N)c2)cc1F)c1csc(NS(=O)(=O)C2CC2)n1 (centres unmarked) reads > 7.00

The measured pIC50 associated with CC(C(=O)Nc1ccc(-c2cccnc2)nc1)c1csc(NS(=O)(=O)C2CC2)n1 (centres unmarked) reads 6.00 to 7.00

The measured pIC50 associated with O=C(Nc1ccc(-c2cncc(C(F)(F)F)n2)cn1)C1CCc2sc(NS(=O)(=O)C3CC3)nc21 (centres unmarked) reads 6.00 to 7.00

The measured pIC50 associated with CC(C)C(C(=O)Nc1ccc(-c2cccnc2)cc1)c1csc(NS(=O)(=O)C2CC2)n1 (racemic) [T12] reads 6.00 to 7.00

The measured pIC50 associated with CC(C)(C(=O)Nc1ccc(-c2cccnc2)cc1Cl)c1csc(NS(=O)(=O)C2CC2)n1 reads 6.00 to 7.00

The measured pIC50 associated with CCC(C(=O)Nc1ccc(-c2cncc(OC(C)C)n2)cn1)c1csc(NS(=O)(=O)C2CC2)n1 (centres unmarked) reads > 7.00

The measured pIC50 associated with CCOc1cncc(-c2ccc(NC(=O)C(CC)c3csc(NS(=O)(=O)C4CC4)n3)cc2)n1 (single isomer, unassigned) [T204] reads > 7.00

The measured pIC50 associated with CC(C)OC(C(=O)Nc1ccc(-c2cncc(C(F)(F)F)n2)cn1)c1csc(NS(=O)(=O)C2CC2)n1 (centres unmarked) reads > 7.00

The measured pIC50 associated with CCC(C(=O)Nc1ccc(-c2cnccn2)cc1)c1csc(NS(=O)(=O)C2CC2)n1 (centres unmarked) reads 6.00 to 7.00
